Would you kindly list % Inhibition for each of these molecules?
- Tested on: P. falciparum stage V gametocytes
- Set-up: BacTiter-Glo ATP luminescence viability of purified stage V gametocytes in 384-well plates, per cent inhibition versus DMSO
- Run parameters: 48 h, 5 µM; inhibitor
Out of some 13,000 compounds screened, about 3,200 (25%) showed an effect of 50% or more. Some of the results follow.
Write down the numeric answer in % and omit the unit.

Exam item: Form: Entry = COc1c(C2CCN(CCCCNC(=O)c3cc(-c4ccc(C#N)cc4)n[nH]3)CC2)ccc2c1CCCC2 [TCMDC-134659] | System = P. falciparum stage V gametocytes | % Inhibition = ____
Marked response: -32.94

Exam item: Form: Entry = COc1ccccc1CN1CCC(CNC(=O)c2cc(-c3cccc(C(F)(F)F)c3)cs2)C1.O=C(O)C(F)(F)F (stereo not shown) [TCMDC-134450] | System = P. falciparum stage V gametocytes | % Inhibition = ____
Marked response: -43.84

Exam item: Form: Entry = COc1c(C2CCN(CCCCNC(=O)c3ccc(-c4ccc(C#N)cc4)nc3)CC2)ccc2c1CCCC2 [TCMDC-134688] | System = P. falciparum stage V gametocytes | % Inhibition = ____
Marked response: -0.6168

Exam item: Form: Entry = COc1ccc2ncc(C#N)c(CCN3CCC(NCc4cnc5c(c4)OCCO5)CC3)c2n1 [TCMDC-135230] | System = P. falciparum stage V gametocytes | % Inhibition = ____
Marked response: 35.06

Exam item: Form: Entry = O=C(c1ccccc1F)N(Cc1ccc(Cl)cc1)c1ccccn1 [TCMDC-124909] | System = P. falciparum stage V gametocytes | % Inhibition = ____
Marked response: -19.06

Exam item: Form: Entry = CCN(CC)S(=O)(=O)c1ccc(C(=O)Oc2ccccc2N(Cc2ccc(OC)cc2)C2=NS(=O)(=O)c3ccccc32)cc1 [TCMDC-125657] | System = P. falciparum stage V gametocytes | % Inhibition = ____
Marked response: 32.63

Exam item: Form: Entry = COC(=O)COc1cc(C(=O)NCCCCN2CCC(c3ccc4c(c3OC)CCCC4)CC2)ccc1-c1ccc(Cl)cc1 [TCMDC-134372] | System = P. falciparum stage V gametocytes | % Inhibition = ____
Marked response: 38.74

Exam item: Form: Entry = COc1c(C2CCN(CCCCNC(=O)C=Cc3ccccc3C(F)(F)F)CC2)ccc2c1CCCC2 [TCMDC-135279] | System = P. falciparum stage V gametocytes | % Inhibition = ____
Marked response: 85.89

Exam item: Form: Entry = COc1c(C2CCN(CCCCNC(=O)c3ccc(-c4ccc(C#N)cc4)c(O)c3)CC2)ccc2c1CCCC2 [TCMDC-138682] | System = P. falciparum stage V gametocytes | % Inhibition = ____
Marked response: 69.72

Exam item: Form: Entry = COCC(=O)Nc1nc2ccccc2[nH]1 [TCMDC-125535] | System = P. falciparum stage V gametocytes | % Inhibition = ____
Marked response: -0.9845

Exam item: Form: Entry = CCc1ccc(-n2cc(C(=O)c3cc(Br)ccc3O)cc(C#N)c2=O)cc1 [TCMDC-125186] | System = P. falciparum stage V gametocytes | % Inhibition = ____
Marked response: 9.775

Exam item: Form: Entry = COc1c(C2CCN(CCCCNC(=O)c3ccc(-c4ccc(Cl)cc4)c(O)c3)CC2)ccc2c1CCCC2 [TCMDC-134282] | System = P. falciparum stage V gametocytes | % Inhibition = ____
Marked response: 111.5

Exam item: Form: Entry = O=C(O)C(F)(F)F.c1cncc(CCNCc2ccc(-c3ccc(-c4nc5ccccc5[nH]4)s3)cc2)c1 [TCMDC-132876] | System = P. falciparum stage V gametocytes | % Inhibition = ____
Marked response: -17.55

Exam item: Form: Entry = COc1c(C2CCN(CCCCNC(=O)c3ccc(-c4ccc(Cl)cc4)c(OCCN(C)C)c3)CC2)ccc2c1CCCC2 [TCMDC-134371] | System = P. falciparum stage V gametocytes | % Inhibition = ____
Marked response: 101.9

Exam item: Form: Entry = Cc1nc(N)nc(N)c1-c1ccc2ccccc2c1 [TCMDC-137286] | System = P. falciparum stage V gametocytes | % Inhibition = ____
Marked response: -7.805

Exam item: Form: Entry = O=C(Cc1cnc[nH]1)Nc1ccc(-c2cccc(-c3nc4ccc(F)cc4[nH]3)c2)cc1 [TCMDC-136941] | System = P. falciparum stage V gametocytes | % Inhibition = ____
Marked response: 11.61

###

Would you kindly list % Inhibition for each of these compounds?
- System: P. falciparum stage V gametocytes
- Set-up: BacTiter-Glo ATP luminescence viability of purified stage V gametocytes in 384-well plates, per cent inhibition versus DMSO
- Run parameters: 48 h, 5 µM; inhibitor
The whole screen tested about 13,000 compounds, of which about 3,200 (25%) showed an effect of 50% or more. The list shows a part of the results.

Exam item: For O=C(Nc1ccccc1Cl)N(Cc1cc(Cl)cc(Cl)c1)CC(O)COc1ccc(Cl)c(F)c1 (stereo not shown) , what is its reported % Inhibition?
Marked response: 10.95%

Exam item: For O=C(NC1CCN(c2ccnc3cc(Cl)ccc23)C1)c1ccc(C(F)(F)F)cc1 (stereo not shown) , what is its reported % Inhibition?
Marked response: 38.8%

Exam item: For COc1ccc(C(=O)CCC(=O)N(Cc2ccc(-c3ccc(CNCCc4ccccc4)cn3)cc2)C(C)CN(C)C)cc1F (stereo not shown) , what is its reported % Inhibition?
Marked response: 109.3%

Exam item: For CCCc1cc(N2CCC(N3CCCC3)CC2)nc(Nc2ccc(OC)cc2)n1 , what is its reported % Inhibition?
Marked response: 2.102%

###

- Test system: P. falciparum stage V gametocytes
- Design: BacTiter-Glo ATP luminescence viability of purified stage V gametocytes in 384-well plates, per cent inhibition versus DMSO
- Run parameters: 48 h, 5 µM; inhibitor
Hit rate of the full screen: of about 13,000 compounds, about 3,200 (25%) showed an effect of 50% or more. The list shows a part of the results.
Would you kindly list % Inhibition for each of these compounds?
Write down the numeric answer in % and omit the unit.

Exam item: For CCCCOc1ccccc1C(=O)NCc1csc(-c2ccccc2)n1 , what is its reported % Inhibition?
Marked response: 34.72

Exam item: For CCN(CC)S(=O)(=O)c1ccc(Cl)c(C(=O)Nc2ccc3nc(C)sc3c2)c1 , what is its reported % Inhibition?
Marked response: 33.54

Exam item: For CCCCNCc1ccc(-c2nc(CN(Cc3ccc(Cl)c(Cl)c3)C(=O)CN(C)C)cs2)cc1 , what is its reported % Inhibition?
Marked response: 68.39

Exam item: For O=C(/C=C/c1ccc(Cl)c(Cl)c1)NCCCCCN1CCCN(C(=O)Nc2ccc(Cl)c(C(F)(F)F)c2)CC1 , what is its reported % Inhibition?
Marked response: -47.47

Exam item: For O=C(/C=C/c1ccc(C(F)(F)F)cc1)NCCCCCN1CCCN(C(=O)Nc2ccc(Cl)c(Cl)c2)CC1 , what is its reported % Inhibition?
Marked response: -57.55

Exam item: For CCCCNCc1ccc(-c2nc(CN(Cc3ccc(Cl)c(Cl)c3)S(=O)(=O)c3ccc(NC(C)=O)cc3)cs2)cc1 , what is its reported % Inhibition?
Marked response: 93.87

Exam item: For Cc1cc(C)c(NC(=O)N2CCCN(CCCCCNC(=O)/C=C/c3ccc(Cl)c(Cl)c3)CC2)c(C)c1 , what is its reported % Inhibition?
Marked response: 28.16

###

- System: P. falciparum stage V gametocytes
- Parameters: BacTiter-Glo ATP luminescence viability of purified stage V gametocytes in 384-well plates, per cent inhibition versus DMSO
- Run parameters: 48 h, 5 µM; inhibitor
Out of some 13,000 compounds screened, about 3,200 (25%) showed an effect of 50% or more. The list shows a part of the results.
Answer no if % Inhibition is under 10%, and yes if it is 10% or more.

Exam item: Given the entry NCC1(c2nc(-c3ccc(Cl)c(O)c3)c(-c3ccncc3)[nH]2)CCCCC1 , answer whether its % Inhibition meets or surpasses 10%.
Marked response: yes

Exam item: Given the entry Cc1cc(=O)c(-c2cccc(Oc3ccc(Cl)cc3)c2)c(C)[nH]1 , answer whether its % Inhibition meets or surpasses 10%.
Marked response: yes

Exam item: Given the entry COc1ccc(Oc2ccc(-c3c(C)[nH]c(C)cc3=O)cc2)cc1 , answer whether its % Inhibition meets or surpasses 10%.
Marked response: yes

Exam item: Given the entry COc1ccc(CN2CCC(NCc3cccc(-n4ccnc4)c3)CC2)cc1 , answer whether its % Inhibition meets or surpasses 10%.
Marked response: yes

Exam item: Given the entry CCc1c(CCNCCCCCCNCCc2ccccc2)ccc(OC)c1OC , answer whether its % Inhibition meets or surpasses 10%.
Marked response: yes

Exam item: Given the entry CC(C)(CN)c1nc(-c2ccc(Cl)c(O)c2)c(-c2ccncc2)[nH]1 , answer whether its % Inhibition meets or surpasses 10%.
Marked response: no

Exam item: Given the entry CC1(C)C(=O)Nc2ccc3c(c21)CC1SC(=O)NN=C31 (stereo not drawn) , answer whether its % Inhibition meets or surpasses 10%.
Marked response: yes

Exam item: Given the entry COc1ccc(C2CCN(CCN3CCC(NC(=O)c4cccc(-c5ccncc5)c4)CC3)CC2)c(OC)c1 , answer whether its % Inhibition meets or surpasses 10%.
Marked response: no

Exam item: Given the entry Cc1cc(=O)c(-c2ccc(Oc3ccc(F)cc3)cc2)c(C)[nH]1 , answer whether its % Inhibition meets or surpasses 10%.
Marked response: yes

Exam item: Given the entry Nc1nc2c(c(=O)[nH]1)-c1cccc(Br)c1CC2 , answer whether its % Inhibition meets or surpasses 10%.
Marked response: no

Exam item: Given the entry c1cc(CNC2CCN(CC3CCCCC3)CC2)cc(-n2ccnc2)c1 , answer whether its % Inhibition meets or surpasses 10%.
Marked response: yes

Exam item: Given the entry Cc1ccc(NC(=O)c2ccc(N3CCC(c4ccccc4C)CC3)nc2)cc1 , answer whether its % Inhibition meets or surpasses 10%.
Marked response: no

Exam item: Given the entry CCn1c(CN2CCC(C)CC2)nc2cc(NC(=O)c3cccs3)ccc21 , answer whether its % Inhibition meets or surpasses 10%.
Marked response: no

Exam item: Given the entry Cc1cc(=O)c(-c2ccc(Oc3ccc(Cl)cc3Cl)cc2)c(C)[nH]1 , answer whether its % Inhibition meets or surpasses 10%.
Marked response: yes

Exam item: Given the entry O=C(Nc1ccc(OC2CCN(Cc3ccsc3)C2)c(Cl)c1)c1ccc2ncccc2c1 (stereo not drawn) , answer whether its % Inhibition meets or surpasses 10%.
Marked response: no

Exam item: Given the entry CCN(CCCN1CCCCC1)c1cc(C)nc(Nc2cccc(OC(F)(F)F)c2)n1 , answer whether its % Inhibition meets or surpasses 10%.
Marked response: no

Exam item: Given the entry COc1ccc(CN(C)Cc2cc(C(C)C)c(C)cc2O)cc1F , answer whether its % Inhibition meets or surpasses 10%.
Marked response: no
